Each item that follows carries a reported Selectivity index (SI) compared to HEK-293 cells.
- Tested on: HEK-293 cells
- assay_text: HEK-293 resazurin viability assay (cytotoxicity, selectivity)
- Assay type: cell-based, human
- test_parameters: relative to T. b. brucei
Structures can show the parent of a compound that is named as a salt.
Number only, no unit.

// solved cases for Selectivity index (SI) compared to HEK-293 cells follow
compound: CC(C)=CCC[C@]1(C)C=Cc2c(O)c3c(c(CC=C(C)C)c2O1)O[C@]12C(=C[C@@H]4C[C@H]1C(C)(C)O[C@@]2(C/C=C(/C)C(=O)O)C4=O)C3=O
reading: 7.11
--
compound: NCCc1c[nH]c2c1C(=O)C1=C(NC=CS1(=O)=O)C2=O
reading: 0.70

[in] Report Selectivity index (SI) compared to HEK-293 cells, nothing else, for this compound: COc1ccc(C[C@H](N)C(=O)N[C@H]2[C@@H](O)[C@H](n3cnc4c(N(C)C)ncnc43)O[C@@H]2CO)cc1 [Puromycin, reference compound]
[out] 12.96

[in] Using known records, supply Selectivity index (SI) compared to HEK-293 cells for `Cc1ccc(S(=O)(=O)n2ccc3c2C(=O)C2=C(NCCS2(=O)=O)C3=O)cc1`
[out] 4.19

[in] Tell us which Selectivity index (SI) compared to HEK-293 cells value is on record for `O=C1N[C@@H]2C(=C[C@H](O)[C@@H](O)[C@H]2O)c2cc3c(c(O)c21)OCO3`
[out] 1.09

[in] Determine from records and report Selectivity index (SI) compared to HEK-293 cells for COc1c(C)c2c(c(O)c1C/C=C(\C)CCC(=O)O)C(=O)OC2 [Compound 5, Mycophenolic acid, reference compound]
[out] 1.01

[in] Specify measured Selectivity index (SI) compared to HEK-293 cells for OC(c1cc(C(F)(F)F)nc2c(C(F)(F)F)cccc12)C1CCCCN1 (stereo not shown) [Compound 8, Mefloquine HCl, reference compound] .
[out] 7.97

---

- System: THP-1 cells
- assay_text: THP-1 cytotoxicity (selectivity)
- Assay type: cell-based, human
- test_parameters: relative to L. donovani DD8 promastigotes
Overview of recorded Selectivity index (SI) compared to THP-1 cells for various compounds

Worked cases, answers included:
compound: C[C@@H]1[C@H](O)[C@@H](C)/C=C/C=C/C=C/C=C/C=C/C=C/C=C/[C@H](O[C@@H]2O[C@H](C)[C@@H](O)[C@H](N)[C@@H]2O)C[C@@H]2O[C@](O)(C[C@@H](O)C[C@@H](O)[C@H](O)CC[C@@H](O)C[C@@H](O)CC(=O)O[C@H]1C)C[C@H](O)[C@H]2C(=O)O [Amphotericin B, reference compound]
reading: > 16.39

compound: COc1c(SC)c(CCN(C)C)c2sc3c(CCN(C)C)c(SC)c(OC)c(OC)c3ssc2c1OC
reading: > 1.81

compound: CCCCCCCCCCCCCCCCOP(=O)([O-])OCC[N+](C)(C)C [Miltefosine, reference compound]
reading: > 5.74

Now for a further compound.
[in] Respond only with Selectivity index (SI) compared to THP-1 cells recorded for `COc1c(OC)c2c(c(CCN(C)C)c1SC)Sc1c(CCN(C)C)c(SC)c(OC)c(OC)c1S2`
[out] 6.88

---

Measured Selectivity index (SI) compared to HEK-293 cells accompanies every entry in the list below.
- Test system: HEK-293 cells
- assay_text: HEK-293 resazurin viability assay (cytotoxicity, selectivity)
- Format: cell-based, human
- test_parameters: relative to L. donovani DD8 promastigotes

compound: CCCCCCCCCCCCCCCCOP(=O)([O-])OCC[N+](C)(C)C [Miltefosine, reference compound]
study_target: HEK-293 cells
reading: > 9.57
--
compound: C[C@@H]1[C@H](O)[C@@H](C)/C=C/C=C/C=C/C=C/C=C/C=C/C=C/[C@H](O[C@@H]2O[C@H](C)[C@@H](O)[C@H](N)[C@@H]2O)C[C@@H]2O[C@](O)(C[C@@H](O)C[C@@H](O)[C@H](O)CC[C@@H](O)C[C@@H](O)CC(=O)O[C@H]1C)C[C@H](O)[C@H]2C(=O)O [Amphotericin B, reference compound]
study_target: HEK-293 cells
reading: > 68.27

[in] Using known records, supply Selectivity index (SI) compared to HEK-293 cells for `COc1c(OC)c2c(c(CCN(C)C)c1SC)Sc1c(CCN(C)C)c(SC)c(OC)c(OC)c1S2`
[out] > 11.72

[in] Output Selectivity index (SI) compared to HEK-293 cells of `COc1c(SC)c(CCN(C)C)c2sc3c(CCN(C)C)c(SC)c(OC)c(OC)c3ssc2c1OC`
[out] > 3.62
